# testTarget: IRAK4 (Homo sapiens, UniProt Q9NWZ3)
# Construct: endogenous in cells; host or cells: THP-1 cells
# Sequence (Q9NWZ3 whole entry): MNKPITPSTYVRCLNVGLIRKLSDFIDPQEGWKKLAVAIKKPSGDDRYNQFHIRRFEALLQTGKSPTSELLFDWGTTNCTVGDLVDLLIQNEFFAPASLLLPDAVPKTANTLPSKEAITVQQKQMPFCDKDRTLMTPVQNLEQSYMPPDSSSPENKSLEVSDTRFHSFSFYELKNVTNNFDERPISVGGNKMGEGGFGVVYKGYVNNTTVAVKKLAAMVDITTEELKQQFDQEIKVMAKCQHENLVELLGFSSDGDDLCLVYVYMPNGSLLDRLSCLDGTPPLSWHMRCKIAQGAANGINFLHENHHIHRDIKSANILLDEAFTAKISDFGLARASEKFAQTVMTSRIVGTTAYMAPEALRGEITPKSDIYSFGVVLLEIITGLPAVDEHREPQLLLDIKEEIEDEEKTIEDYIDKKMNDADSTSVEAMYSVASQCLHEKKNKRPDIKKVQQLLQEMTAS
# measurementProtocol: LVL THP1 HTRF (THP1 Homogeneous Time Resolved Fluorescence)
# Format: cell-based
# testContext: THP1 cells, 18 h incubation with compound

molecule	testTarget	readingUnit	LVL THP1 HTRF YMIN
C[C@H](C#N)Nc1cc(-n2ncc3cc(C#N)c(N)nc32)ncc1-n1cc([C@H]2CC[C@H](CCN3CCN(c4ccc([C@@]5(C)CCC(=O)NC5=O)nc4)[C@@H](C)C3)CC2)nn1 (single isomer, unassigned)	IRAK4 (Homo sapiens, UniProt Q9NWZ3)	%	34.7
C[C@H](C#N)Nc1cc(Nc2ncc(C#N)cc2F)ncc1-n1cc([C@H]2CC[C@H](CCN3CC[C@H]4[C@@H]3CCN4c3ccc(N4CCC(=O)NC4=O)cc3)CC2)nn1 (single isomer, unassigned)	IRAK4 (Homo sapiens, UniProt Q9NWZ3)	%	−1.72
C[C@H](C#N)Nc1cc(-n2ncc3cc(C#N)cnc32)ncc1-n1cc(C2CCC(CCN3CCC(c4ccc(C5CCC(=O)NC5=O)cc4)CC3)CC2)nn1 (some centres unmarked)	IRAK4 (Homo sapiens, UniProt Q9NWZ3)	%	0.9
C[C@H](C#N)Nc1cc(Nc2ncc(C#N)cc2F)ncc1-n1cc([C@H]2CC[C@H](CCN3CCN(c4ccc(N5CCC(=O)NC5=O)cc4)CC3)CC2)nn1	IRAK4 (Homo sapiens, UniProt Q9NWZ3)	%	6.7
CC1CN(CC[C@H]2CC[C@H](c3cn(-c4cnc(-n5ncc6cc(C#N)cnc65)cc4N[C@H](C)C#N)nn3)CC2)CCC1c1ccc([C@@]2(C)CCC(=O)NC2=O)cc1 (some centres unmarked)	IRAK4 (Homo sapiens, UniProt Q9NWZ3)	%	10.4
C[C@H](C#N)Nc1cc(-n2ncc3cc(C#N)cnc32)ncc1C(=O)N[C@H]1CC[C@H](CCN2CCN(c3ccc(N4CCC(=O)NC4=O)cc3)CC2)CC1	IRAK4 (Homo sapiens, UniProt Q9NWZ3)	%	24.2
C[C@H](C#N)Nc1cc(-n2ncc3cc(C#N)cnc32)ncc1-n1cc([C@H]2CC[C@H](CCN3CCN(c4cccc5c(N6CCC(=O)NC6=O)nn(C)c45)CC3)CC2)nn1	IRAK4 (Homo sapiens, UniProt Q9NWZ3)	%	14.9
C[C@H](C#N)Nc1cc(-n2ncc3cc(C#N)c(N)nc32)ncc1-n1cc([C@H]2CC[C@H](CCN3[C@@H](C)CN(c4ccc([C@@]5(C)CCC(=O)NC5=O)cn4)C[C@@H]3C)CC2)nn1 (single isomer, unassigned) [P-254]	IRAK4 (Homo sapiens, UniProt Q9NWZ3)	%	91.0
C[C@H](C#N)Nc1cc(-n2ncc3cc(C#N)cnc32)ncc1-n1cc([C@H]2CC[C@H](CCN3CCN(c4ccc(NC5CCC(=O)NC5=O)cc4)CC3)CC2)nn1 (some centres unmarked)	IRAK4 (Homo sapiens, UniProt Q9NWZ3)	%	2.9
C[C@H](C#N)Nc1cc(-n2ncc3cc(C#N)cnc32)ncc1-n1cc([C@H]2CC[C@H](CCN3CCC(c4ccc(N5CCC(=O)NC5=O)cc4)C(F)(F)C3)CC2)nn1 (some centres unmarked) [P-401]	IRAK4 (Homo sapiens, UniProt Q9NWZ3)	%	0.5
C[C@H](C#N)Nc1cc(-n2ncc3cc(C#N)cnc32)ncc1-n1cc([C@H]2CC[C@H](CCN3CCC(c4ccc(C5(O)CCC(=O)NC5=O)cc4)CC3)CC2)nn1 (some centres unmarked)	IRAK4 (Homo sapiens, UniProt Q9NWZ3)	%	93.1
C[C@H](C#N)Nc1cc(-n2ncc3cc(C#N)cnc32)ncc1-n1cc([C@H]2CC[C@H](CCN3CC[C@H]4[C@@H]3CCN4c3ccc([C@@]4(C)CCC(=O)NC4=O)nc3)CC2)nn1 (single isomer, unassigned) [P-286]	IRAK4 (Homo sapiens, UniProt Q9NWZ3)	%	6.6
C[C@H](C#N)Nc1cc(-n2ncc3cc(C#N)cnc32)ncc1-n1cc([C@H]2CC[C@H](CCN3C[C@@H]4CN(c5ccc(N6CCC(=O)NC6=O)cc5)C[C@@H]4C3)CC2)nn1 (single isomer, unassigned)	IRAK4 (Homo sapiens, UniProt Q9NWZ3)	%	12.0
C[C@H](C#N)Nc1cc(-n2ncc3ccc(N4C[C@H]5C[C@@H]4CO5)nc32)ncc1-n1cc([C@H]2CC[C@H](CCN3CCC(c4ccc([C@@]5(F)CCC(=O)NC5=O)cc4)CC3)CC2)nn1 (single isomer, unassigned)	IRAK4 (Homo sapiens, UniProt Q9NWZ3)	%	5.2
C[C@H](C#N)Nc1cc(Nc2ccc(C#N)cn2)ncc1-n1cc([C@H]2CC[C@H](CCN3CCN(c4ccc([C@@]5(C)CCC(=O)NC5=O)cc4)CC3)CC2)nn1	IRAK4 (Homo sapiens, UniProt Q9NWZ3)	%	3.2
COc1cc([C@@]2(C)CCC(=O)NC2=O)ccc1N1CCN(CC[C@H]2CC[C@H](c3cn(-c4cnc(-n5ncc6cc(C#N)c(N)nc65)cc4N[C@H](C)C#N)nn3)CC2)C[C@H]1C (single isomer, unassigned) [P-305]	IRAK4 (Homo sapiens, UniProt Q9NWZ3)	%	84.3
C[C@H](C#N)Nc1cc(-n2ncc3cc(C#N)cnc32)ncc1C(=O)N[C@H]1CC[C@H](CCN2CCN(c3ccc([C@@]4(C)CCC(=O)NC4=O)cc3)[C@@H](C)C2)CC1	IRAK4 (Homo sapiens, UniProt Q9NWZ3)	%	2.9
C[C@H](C#N)Nc1cc(-n2ncc3cc(C#N)cnc32)ncc1-n1cc([C@H]2CC[C@H](CCN3CCC(O)(c4ccc(N5CCC(=O)NC5=O)cc4)CC3)CC2)nn1	IRAK4 (Homo sapiens, UniProt Q9NWZ3)	%	88.5
C[C@H](C#N)Nc1cc(-c2ccc3cc(C#N)cnn23)ncc1-n1cc([C@H]2CC[C@H](CCN3CCN(c4ccc(C5CCC(=O)NC5=O)cc4)CC3)CC2)nn1 (some centres unmarked)	IRAK4 (Homo sapiens, UniProt Q9NWZ3)	%	1.4
C[C@H](C#N)Nc1cc(-n2ncc3cc(C#N)cnc32)ncc1-n1cc([C@H]2CC[C@H](CCN3CCC(c4ccc(NC5CCC(=O)NC5=O)cc4)CC3)CC2)nn1 (some centres unmarked)	IRAK4 (Homo sapiens, UniProt Q9NWZ3)	%	87.0
